Origin of the recorded values: paper PMC10786891

Molecular target: T1, EsCas13d, nuclease-dead (Eubacterium siraeum, UniProt B0MS50, R295A;H300A;R849A;H854A)
T1 sequence: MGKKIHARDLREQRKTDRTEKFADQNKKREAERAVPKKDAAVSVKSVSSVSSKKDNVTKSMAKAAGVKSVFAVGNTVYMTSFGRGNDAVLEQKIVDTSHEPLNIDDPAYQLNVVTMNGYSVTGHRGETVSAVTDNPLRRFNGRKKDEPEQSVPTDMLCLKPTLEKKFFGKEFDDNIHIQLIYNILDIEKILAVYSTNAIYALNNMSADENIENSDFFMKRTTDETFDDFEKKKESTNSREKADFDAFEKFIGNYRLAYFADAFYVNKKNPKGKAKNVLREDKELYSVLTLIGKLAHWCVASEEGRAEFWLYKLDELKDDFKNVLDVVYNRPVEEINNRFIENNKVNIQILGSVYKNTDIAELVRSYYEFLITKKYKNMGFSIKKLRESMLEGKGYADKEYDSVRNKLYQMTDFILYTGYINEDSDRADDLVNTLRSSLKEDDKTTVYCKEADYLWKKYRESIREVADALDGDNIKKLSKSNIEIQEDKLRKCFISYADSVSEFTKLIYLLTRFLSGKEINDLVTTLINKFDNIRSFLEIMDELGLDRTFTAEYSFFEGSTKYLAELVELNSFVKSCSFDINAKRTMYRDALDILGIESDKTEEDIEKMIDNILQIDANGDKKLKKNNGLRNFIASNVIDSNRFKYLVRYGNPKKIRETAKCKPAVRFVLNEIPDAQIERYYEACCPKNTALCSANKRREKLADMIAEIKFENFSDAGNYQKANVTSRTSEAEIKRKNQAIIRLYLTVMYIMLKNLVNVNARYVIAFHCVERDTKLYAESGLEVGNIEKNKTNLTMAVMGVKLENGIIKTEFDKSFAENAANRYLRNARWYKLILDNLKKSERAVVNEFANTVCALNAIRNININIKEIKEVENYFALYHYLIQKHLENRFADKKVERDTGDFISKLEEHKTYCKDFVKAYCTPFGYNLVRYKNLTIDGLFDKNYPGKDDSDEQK
Assay: crRNA (strand 1, pre-loaded); Mg2+; 40 mM Tris-HCl pH 7.5, 150 mM NaCl, 6 mM MgCl2, 1 mM DTT, 0.1% Tween-20, 0.2 mg/ml BSA; 25 C; 10 min per concentration, then washed
Settings: tags: His6-TwinStrep-SUMO cleaved; N-terminal SNAP kept (SNAP-Surface 488); label: 3' end held by stalled T7 RNA polymerase
The following binders are listed with their measured log10 of Kd values.
Plainly stated, the numbers are log10 of Kd given in nM.

- BINDER: "target 3 insU 3' of 16,insG 3' of 1 (mixed) RNA 1: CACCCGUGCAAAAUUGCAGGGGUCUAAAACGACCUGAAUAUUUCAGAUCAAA RNA 2: GGGAAUGGAUCCACAUCUACGAAUUCGUUUUUGAUCUUGAAAUAUUCAGGUCGUGCAGAUCGGAAGAGCACACGU"
  log10 of Kd: 1.66
- BINDER: "target 3 insA 3' of 4,insU 3' of 3 (mixed) RNA 1: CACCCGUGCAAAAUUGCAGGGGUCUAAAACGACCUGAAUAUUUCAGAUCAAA RNA 2: GGGAAUGGAUCCACAUCUACGAAUUCGUUUUUGAUCUGAAAUAUUCAGAGUUCUGCAGAUCGGAAGAGCACACGU"
  log10 of Kd: 1.86
- BINDER: "target 1 MT 5'PFS GUA 3'PFS GUG (mixed) RNA 1: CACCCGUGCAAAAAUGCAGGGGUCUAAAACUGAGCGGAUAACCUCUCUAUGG RNA 2: GGGAAUGGAUCCACAUCUACGAAUUCGUACCAUAGAGAGGUUAUCCGCUCAGUGAGAUCGGAAGAGCACACGU"
  log10 of Kd: 0.93
- BINDER: "target 1 MT 5'PFS UAA 3'PFS UCG (mixed) RNA 1: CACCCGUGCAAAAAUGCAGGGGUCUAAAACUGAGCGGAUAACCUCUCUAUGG RNA 2: GGGAAUGGAUCCACAUCUACGAAUUCUAACCAUAGAGAGGUUAUCCGCUCAUCGAGAUCGGAAGAGCACACGU"
  log10 of Kd: 1.36
- BINDER: "target 1 MT 5'PFS UAU 3'PFS UCU (mixed) RNA 1: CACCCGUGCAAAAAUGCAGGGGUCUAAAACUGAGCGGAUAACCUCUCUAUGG RNA 2: GGGAAUGGAUCCACAUCUACGAAUUCUAUCCAUAGAGAGGUUAUCCGCUCAUCUAGAUCGGAAGAGCACACGU"
  log10 of Kd: 1.51

Reported log10 of Kd for target 3 C6A,A9G (mixed) RNA 1: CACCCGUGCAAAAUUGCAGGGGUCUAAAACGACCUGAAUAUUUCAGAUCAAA RNA 2: GGGAAUGGAUCCACAUCUACGAAUUCGUUUUUGAUCUGAAAUGUUAAGGUCUGCAGAUCGGAAGAGCACACGU was 1.77

// log10 of Kd value for target 1 MT 5'PFS GAG 3'PFS AUA (mixed) RNA 1: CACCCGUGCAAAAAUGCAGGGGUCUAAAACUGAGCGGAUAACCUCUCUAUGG RNA 2: GGGAAUGGAUCCACAUCUACGAAUUCGAGCCAUAGAGAGGUUAUCCGCUCAAUAAGAUCGGAAGAGCACACGU : 1.53

The binder identified as target 3 insC 3' of 7,insC 3' of 5 (mixed) RNA 1: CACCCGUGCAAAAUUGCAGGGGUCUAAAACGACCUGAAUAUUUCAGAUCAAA RNA 2: GGGAAUGGAUCCACAUCUACGAAUUCGUUUUUGAUCUGAAAUAUUCCACGGUCUGCAGAUCGGAAGAGCACACGU registered its log10 of Kd at 2.03
